Test system: Escherichia coli
Assay name: Antibacterial activity against Escherichia coli after 24 hr by serial dilution method
Assay type: functional
As shown below, each of these molecules has a reported MIC value.
Provide the reading as a plain figure in µg/mL.

# annotated cases, reported MIC shown
>>> obs_value("CCOC(=O)C1/C(=N\\O)CC(C(C)(C)C)NC1C(C)(C)C (configuration not stated)")
16
>>> obs_value("CCOC(=O)C1C(=O)CC(C(C)(C)C)NC1C(C)(C)C (configuration not stated)")
64

Lab note: CCOC(=O)C1C(=O)CC(C(C)(C)C)N(C(C)(C)C)C1C(C)(C)C (configuration not stated) gave MIC of 64

Sample CCn1cc(C(=O)O)c(=O)c2cc(F)c(N3CCNCC3)cc21 ; MIC observed: 32

MIC measured on CC(C)(C)C1CC(=O)CC(C(C)(C)C)N1 (configuration not stated) = 64

Sample CC(C)(C)C1CC(=O)CC(C(C)(C)C)N1C(C)(C)C (configuration not stated) ; MIC observed: 64
